# Plant response rating, Pigweed per record follows
Tested on: pigweed (Amaranthus retroflexus)
protocol_summary: Test B pre-/postemergence plant response
Format: in vivo
recorded_conditions: Preemergence, 62 g ai/ha; scale 0 to 100 (0 no effect, 100 complete control)
Text: […] Treated plants and controls were maintained in a greenhouse for 13 to 15 days, after which time all treated plants were visually evaluated and compared to controls. […]
metric_name: Plant response rating, Pigweed

# molecule, experimental_result
rows = [
    ("COCCCn1c(-c2cc(F)cc(F)c2)ncc(C(=O)C2=C(O)CCCC2=O)c1=O", 100),
    ("CCCCn1c(-c2cc(F)cc(F)c2)ncc(C(=O)C2=C(O)C3CCC(C3)C2=O)c1=O (stereo not shown)", 95),
    ("CCCCc1ncc(C(=O)C2=C(O)CCCC2=O)c(=O)n1-c1cccc(C)c1", 98),
    ("COc1ccc(-n2c(-c3ccccc3)ncc(C(=O)C3=C(O)CCCC3=O)c2=O)cc1OC", 100),
    ("CCCn1c(-c2cccs2)ncc(C(=O)C2=C(O)CCCC2=O)c1=O", 100),
    ("O=C1CCCC(O)=C1C(=O)c1cnc(-c2cccc(Cl)c2)n(-c2ccc(Cl)cc2)c1=O", 75),
    ("Cc1cc(C)cc(-n2c(-c3ccccc3)ncc(C(=O)C3=C(O)CCCC3=O)c2=O)c1", 100),
    ("Cc1ccccc1-n1c(-c2ccccc2)ncc(C(=O)C2=C(O)CCCC2=O)c1=O", 100),
    ("CCCc1ncc(C(=O)C2=C(O)CCCC2=O)c(=O)n1-c1ccccc1C", 100),
    ("CCc1ccc(-n2c(-c3ccccc3)ncc(C(=O)C3=C(O)CCCC3=O)c2=O)cc1", 100),
]
